experimental protocol: NCI Yeast Anticancer Drug Screen. Data for the rad50 strain (AID 155)
test context: S. cerevisiae rad50 strain growth inhibition; at 5.0 µM (retest, dose inferred, filed as 0.5); stronger effect = higher value
This is part of a sample that, as a whole, favours compounds with a hit. Of some 79,000 tested, about 15% had one in any assay.
Quick rule for you: growth inhibition at 20% or higher means fulfilled, lower means not fulfilled.

Sample answers from the record:
| molecule | qualitative label |
| --- | --- |
| N#CC(C#N)=Cc1ccc(C#N)cc1 | not fulfilled |
| CO/C(N)=C(\C#N)N=Cc1cccnc1 | fulfilled |

input: Is it the case that `COc1ccc(C2N(Cc3ccc(N(CCCl)CCCl)cc3C)CCCN2Cc2ccc(N(CCCl)CCCl)cc2C)cc1` has growth inhibition reaching or exceeding 20%?
output: not fulfilled

input: Is it the case that `CN(N=O)C(=O)NNC(=O)N(C)N=O` has growth inhibition reaching or exceeding 20%?
output: fulfilled

input: Is it the case that `CC1(C)CCC(C)(C)c2cc(Cl)c(O)cc21` has growth inhibition reaching or exceeding 20%?
output: not fulfilled
